# Tested system: SUMO (Homo sapiens)
# Sequence (Q9UBT2 whole entry): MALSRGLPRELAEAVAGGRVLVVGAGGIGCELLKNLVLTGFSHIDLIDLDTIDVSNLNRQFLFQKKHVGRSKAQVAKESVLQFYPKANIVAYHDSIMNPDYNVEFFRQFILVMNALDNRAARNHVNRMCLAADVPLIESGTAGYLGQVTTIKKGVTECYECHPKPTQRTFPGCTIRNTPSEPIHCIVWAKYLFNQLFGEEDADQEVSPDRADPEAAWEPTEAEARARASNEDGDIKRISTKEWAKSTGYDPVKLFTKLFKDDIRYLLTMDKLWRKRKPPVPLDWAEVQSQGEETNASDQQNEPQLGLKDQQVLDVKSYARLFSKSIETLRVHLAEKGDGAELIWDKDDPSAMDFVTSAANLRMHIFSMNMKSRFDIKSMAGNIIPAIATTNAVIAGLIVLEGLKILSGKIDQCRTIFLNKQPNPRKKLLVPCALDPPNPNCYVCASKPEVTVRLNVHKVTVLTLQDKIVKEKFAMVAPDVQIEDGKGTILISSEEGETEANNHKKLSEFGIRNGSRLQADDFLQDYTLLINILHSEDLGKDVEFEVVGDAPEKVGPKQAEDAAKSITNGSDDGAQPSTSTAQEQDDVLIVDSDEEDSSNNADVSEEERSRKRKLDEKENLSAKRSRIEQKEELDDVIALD
# Sequence (Q9UBE0 whole entry partner): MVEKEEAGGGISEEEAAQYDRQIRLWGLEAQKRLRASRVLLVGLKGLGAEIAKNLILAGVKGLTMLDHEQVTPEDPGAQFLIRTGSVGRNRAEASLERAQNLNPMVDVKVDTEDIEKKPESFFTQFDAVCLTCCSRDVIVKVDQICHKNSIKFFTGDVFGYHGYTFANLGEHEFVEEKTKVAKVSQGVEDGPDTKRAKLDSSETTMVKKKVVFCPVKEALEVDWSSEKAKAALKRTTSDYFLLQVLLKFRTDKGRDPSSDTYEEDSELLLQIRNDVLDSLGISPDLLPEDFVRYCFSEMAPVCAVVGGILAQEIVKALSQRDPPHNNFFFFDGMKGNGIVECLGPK
# Experimental protocol: SUMO activity (Table I, biological activities)
# Type: biochemical
# Parameters: key: + (less active); ++ (active); +++ (most active)
Property: SUMO

A selection of reference data follows.
- Molecule: "COC(=O)C1=C(C(=O)NCCN2CCN(C)CC2)C2C=CC1(C(Cc1ccccc1)Nc1ccccc1)O2 (centres unmarked) [Compound 463]"
  Tested system: "SUMO (Homo sapiens)"
  Property: "SUMO"
  Result: "++"
- Molecule: "COC(=O)C1=C(C(=O)Nc2ccc(CN3CCOCC3)cc2)C2C=CC1(C(Cc1ccccc1)Nc1ccccc1)O2 (centres unmarked) [Compound 507]"
  Tested system: "SUMO (Homo sapiens)"
  Property: "SUMO"
  Result: "++"
- Molecule: "COC(=O)C1=C(C(=O)NCCCCCNC(=O)OCC2c3ccccc3-c3ccccc32)C2C=CC1(C(Cc1ccccc1)Nc1cc(F)cc(F)c1)O2 (centres unmarked) [Compound 244]"
  Tested system: "SUMO (Homo sapiens)"
  Property: "SUMO"
  Result: "+"
- Molecule: "COC(=O)C1=C(C(=O)OC)C2(C(Cc3ccc(OC)cc3)Nc3ccccc3)C=CC1O2 (centres unmarked) [Compound 633]"
  Tested system: "SUMO (Homo sapiens)"
  Property: "SUMO"
  Result: "+++"
- Molecule: "CCN(CC)CCNC(=O)C1=C(C(=O)OC)C2(C(Cc3cccc(F)c3)Nc3cc(F)cc(F)c3)C=CC1O2 (centres unmarked) [Compound 436]"
  Tested system: "SUMO (Homo sapiens)"
  Property: "SUMO"
  Result: "+++"
- Molecule: "COC(=O)C1=C(C(=O)Nc2ccc(C)c(F)c2)C2C=CC1(C(Cc1ccccc1)Nc1ccccc1)O2 (centres unmarked) [Compound 285]"
  Tested system: "SUMO (Homo sapiens)"
  Property: "SUMO"
  Result: "++"
- Molecule: "CCOC(=O)C1=C(C(=O)NC2CCN(C)CC2)C2C=CC1(C(Cc1ccccc1)Nc1ccc(F)cc1F)O2 (centres unmarked) [Compound 329]"
  Tested system: "SUMO (Homo sapiens)"
  Property: "SUMO"
  Result: "+++"
- Molecule: "COC(=O)C1=C(C(=O)NC2CCN(C(=O)NCc3cccnc3)CC2)C2C=CC1(C(Cc1ccccc1)Nc1ccccc1)O2 (centres unmarked) [Compound 384]"
  Tested system: "SUMO (Homo sapiens)"
  Property: "SUMO"
  Result: "++"
- Molecule: "CCOC(=O)C1=C(C(F)(F)F)C2(C(Cc3ccccc3)Nc3ccccc3)C=CC1O2 (centres unmarked) [Compound 298]"
  Tested system: "SUMO (Homo sapiens)"
  Property: "SUMO"
  Result: "++"
- Molecule: "COC(=O)C1=C(C(=O)NC2CCOCC2)C2C=CC1(C(Cc1ccccc1)Nc1ccccc1)O2 (centres unmarked) [Compound 275]"
  Tested system: "SUMO (Homo sapiens)"
  Property: "SUMO"
  Result: "+++"

Would you mind listing SUMO for each of the following molecules?
1. C=CCCC(Nc1ccccc1)C12C=CC(O1)C(C(=O)Nc1ccc(OC)cc1)=C2C(=O)OC (centres unmarked) [Compound 176]
2. COC(=O)C1=C(C(=O)Nc2ccc(OC)cc2)C2C=CC1(C(Cc1ccccc1)Nc1cccc(CO)c1)O2 (centres unmarked) [Compound 537]
3. COC(=O)C1=C(C(=O)OC)C2(C(Cc3ccc(F)cc3F)Nc3ccccc3)C=CC1O2 (centres unmarked) [Compound 639]
4. CCCCC(Nc1ccccc1)C12C=CC(O1)C(C(=O)OC)=C2C(=O)OC (centres unmarked) [Compound 210]
5. COC(=O)C1=C(C(=O)NNc2cc(C(F)(F)F)cc(C(F)(F)F)c2)C2C=CC1(C(Cc1ccccc1)Nc1cc(F)cc(F)c1)O2 (centres unmarked) [Compound 317]

Reply text:
1. ++
2. ++
3. ++
4. +++
5. +

Each molecule below has a reported value. Please supply its SUMO.
1. COC(=O)C1=C(C(=O)OC)C2(C(Cc3ccccc3Cl)Nc3cccc(OCc4ccccc4)c3)C=CC1O2 (centres unmarked) [Compound 674]
2. COC(=O)C1=C(C(=O)NC2CCN(C(=O)c3ccc(Cl)s3)CC2)C2C=CC1(C(Cc1ccccc1)Nc1ccccc1)O2 (centres unmarked) [Compound 392]
3. CCN(CC)CCNC(=O)C1=C(C(=O)OC)C2(C(Cc3ccc(Cl)cc3)Nc3cc(F)cc(F)c3)C=CC1O2 (centres unmarked) [Compound 427]
4. CCOc1cccc(NC(Cc2ccccc2)C23C=CC(O2)C(C(N)=O)=C3C(=O)OC)c1 (centres unmarked) [Compound 249]
5. C=CCC(Nc1ccccc1)C12C=CC(O1)C(C(=O)OC)=C2C(=O)OC (centres unmarked) [Compound 407]

Reply text:
++
++
++
++
++

###

# Tested system: Nedd8 (Homo sapiens, UniProt Q8TBC4)
# Sequence (Q8TBC4 whole entry): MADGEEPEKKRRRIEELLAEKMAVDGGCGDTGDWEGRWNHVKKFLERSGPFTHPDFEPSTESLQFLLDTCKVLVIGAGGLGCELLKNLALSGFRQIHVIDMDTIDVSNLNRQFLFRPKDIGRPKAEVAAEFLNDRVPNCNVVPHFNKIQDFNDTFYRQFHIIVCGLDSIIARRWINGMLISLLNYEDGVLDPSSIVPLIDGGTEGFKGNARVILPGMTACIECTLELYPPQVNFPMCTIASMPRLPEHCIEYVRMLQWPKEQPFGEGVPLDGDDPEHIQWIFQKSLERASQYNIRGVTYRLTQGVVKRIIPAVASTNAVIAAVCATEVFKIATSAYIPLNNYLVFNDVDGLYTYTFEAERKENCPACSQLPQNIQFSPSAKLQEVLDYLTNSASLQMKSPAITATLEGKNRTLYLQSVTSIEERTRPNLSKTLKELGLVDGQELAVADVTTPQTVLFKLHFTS
# Sequence (Q13564 whole entry partner): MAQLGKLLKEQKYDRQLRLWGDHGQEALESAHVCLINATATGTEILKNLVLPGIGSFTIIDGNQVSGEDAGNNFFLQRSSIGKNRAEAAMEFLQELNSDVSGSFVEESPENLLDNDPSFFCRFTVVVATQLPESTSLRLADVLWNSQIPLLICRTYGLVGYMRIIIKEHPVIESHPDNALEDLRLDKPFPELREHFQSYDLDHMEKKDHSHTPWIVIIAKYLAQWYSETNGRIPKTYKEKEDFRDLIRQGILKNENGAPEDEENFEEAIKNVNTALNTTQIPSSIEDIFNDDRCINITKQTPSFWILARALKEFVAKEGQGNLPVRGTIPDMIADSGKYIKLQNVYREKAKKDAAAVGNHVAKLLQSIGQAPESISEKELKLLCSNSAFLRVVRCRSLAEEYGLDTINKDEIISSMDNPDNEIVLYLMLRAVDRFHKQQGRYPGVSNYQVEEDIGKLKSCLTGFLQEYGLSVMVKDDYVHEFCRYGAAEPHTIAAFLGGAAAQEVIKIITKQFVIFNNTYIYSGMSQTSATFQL
# Experimental protocol: Nedd8 activity (Table I, biological activities)
# Type: biochemical
# Design: key: + (less active); ++ (active); +++ (most active)
Property: Nedd8

Solved cases (6 shown):
- Molecule: "COC(=O)C1=C(C(=O)Nc2ccc(OCCN(C)C)cc2)C2OC1(C(Cc1ccccc1)Oc1ccccc1)C1OC21 (stereo not shown) [Compound 534]"
  Nedd8: "++"
- Molecule: "COC(=O)C1=C(C(N)=O)C2C=CC1(C(Cc1ccccc1)Nc1ccc(F)cc1)O2 (stereo not shown) [Compound 540]"
  Nedd8: "++"
- Molecule: "COC(=O)C1=C(C(=O)Nc2ccc(OC)cc2)C2C=CC1(C(Cc1ccccc1)Nc1cccc(CO)c1)O2 (stereo not shown) [Compound 537]"
  Nedd8: "++"
- Molecule: "COC(=O)C1=C(C(N)=O)C2C=CC1(C(Cc1ccccc1)Nc1cccc(CO)c1)O2 (stereo not shown) [Compound 536]"
  Nedd8: "++"
- Molecule: "COC(=O)C1=C(C(=O)NC2CCN(C)CC2)C2OC1(C(Cc1ccccc1)Oc1ccccc1)C1OC21 (stereo not shown) [Compound 541]"
  Nedd8: "++"
- Molecule: "Cc1ccc(S(=O)(=O)C2=CC3(C)C=CC2(C(Cc2ccccc2)Nc2ccccc2)O3)cc1 (stereo not shown) [Compound 531]"
  Nedd8: "++"

Okay, next one:
Inquiry: # Nedd8 lookup, item COC(=O)C1=C(C(=O)NCCN(C)C)C2C=CC1(C(Cc1ccccc1)Nc1cccc(CO)c1)O2 (stereo not shown) [Compound 535]
Reply text: ++

###

# Tested system: SUMO (Homo sapiens)
# Experimental protocol: SUMO activity (Table I, biological activities)
# Format: biochemical
# Design: key: + (less active); ++ (active); +++ (most active)
Property: SUMO

Some solved entries appear below for comparison.
- Compound: "COC(=O)C1=C(C(=O)NC(C)(C)C)C2C=CC1(C(Cc1ccccc1)Nc1ccccc1)O2 (stereo not drawn)"
  SUMO: "+"
- Compound: "CCOC(=O)C1=C(C(=O)OCC)C2(C(Cc3ccccc3)Nc3ccccc3)C=CC1O2 (stereo not drawn)"
  SUMO: "+++"
- Compound: "CCOC(=O)C1=C(C(=O)Nc2ccc(C)nc2)C2C=CC1(C(Nc1ccccc1)c1ccc(CN3CCOCC3)cc1)O2 (stereo not drawn)"
  SUMO: "+"
- Compound: "COC(=O)C1=C(C(N)=O)C2C=CC1(C(Cc1ccccc1)Nc1ccccc1)O2 (stereo not drawn) [Compound 151]"
  SUMO: "++"
- Compound: "COC(=O)C1=C(C(=O)OC)C2(C(Cc3cccc(OC)c3)Nc3ccccc3)C=CC1O2 (stereo not drawn)"
  SUMO: "+++"
- Compound: "COC(=O)C1=C(C(=O)OC)C2(C(Nc3ccccc3)c3ccc4cc(OC)ccc4c3)C=CC1O2 (stereo not drawn)"
  SUMO: "++"
- Compound: "CNC(=O)C1=C(C(=O)OC)C2(C(Cc3ccccc3)Nc3cc(F)cc(F)c3)C=CC1O2 (stereo not drawn)"
  SUMO: "++"
- Compound: "CCOC(=O)C1=C(C(=O)Nc2ccccc2OC)C2C=CC1(C(Nc1ccccc1)c1ccc(CN3CCOCC3)cc1)O2 (stereo not drawn)"
  SUMO: "+"

# return SUMO for each item in the list
1. COC(=O)C1=C(C(=O)NCCN(C)C(=O)OC(C)(C)C)C2C=CC1(C(Cc1ccccc1)Nc1ccccc1)O2 (stereo not drawn)
2. COC(=O)C1=C(C(=O)NC2CCN(C)CC2)C2C=CC1(C(Cc1ccccc1)Nc1c(F)cccc1F)O2 (stereo not drawn)
3. COC(=O)C1=C(C(=O)OC)C2(C(Cc3ccccc3F)Nc3cc(F)cc(F)c3)C=CC1O2 (stereo not drawn)

Reply text:
["++", "++", "+++"]

Batch of 4 compounds: report SUMO for each.
1. COC(=O)C1=C(C(=O)Nc2ccc(C)nc2)C2C=CC1(C(Cc1ccccc1)Oc1ccccc1)O2 (stereo not drawn)
2. COC(=O)C1=C(C(=O)OC2CCN(C)CC2)C2C=CC1(C(Cc1ccccc1)Nc1ccccc1)O2 (stereo not drawn)
3. CC12C=CC(C(Cc3ccccc3)Nc3ccccc3)(C=C1C(=O)c1ccc(F)cc1)O2 (stereo not drawn)
4. COC(=O)C1=C(C(=O)NCCN(C)C)C2CCC1(C(Cc1ccccc1Cl)Nc1ccccc1)O2 (stereo not drawn)

Reply text:
1. +
2. ++
3. +
4. ++
